Target: T1, yPolη truncated (catalytic core) (Saccharomyces cerevisiae, UniProt Q04049 1-513)
T1 sequence: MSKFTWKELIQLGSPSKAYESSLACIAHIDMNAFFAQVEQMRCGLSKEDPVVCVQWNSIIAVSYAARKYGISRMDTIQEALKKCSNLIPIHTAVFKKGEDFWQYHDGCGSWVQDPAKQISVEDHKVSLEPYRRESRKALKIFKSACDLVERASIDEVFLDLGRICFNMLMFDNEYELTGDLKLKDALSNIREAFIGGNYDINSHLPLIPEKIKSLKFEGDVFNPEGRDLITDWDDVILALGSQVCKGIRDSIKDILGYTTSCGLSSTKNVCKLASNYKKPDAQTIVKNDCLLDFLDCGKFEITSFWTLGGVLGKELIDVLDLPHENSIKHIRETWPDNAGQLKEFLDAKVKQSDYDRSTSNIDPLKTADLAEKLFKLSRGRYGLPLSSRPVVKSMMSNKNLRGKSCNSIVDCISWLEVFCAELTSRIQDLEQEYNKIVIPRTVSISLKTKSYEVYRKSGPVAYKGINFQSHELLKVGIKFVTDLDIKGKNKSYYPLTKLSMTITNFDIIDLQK
Experiment: EMSA; koff 0.008 ± 0.001 s-1 (DNA trap); 23°C, buffer A (composition not in material; without BSA for fluorescence); EMSA 10 nM DNA, 10-450 nM protein, 20 min, 4.5% native gel, 40 mM Tris in running bu
Value Type: Kd (nM)
// note: answer is a bare numeric in nM

State, in one line, measured Kd of D-1 21/41-mer (dsDNA) DNA 1: CGCAGCCGTCCAACCAACTCA DNA 2: GGACGGCATTGGATCGACGATGAGTTGGTTGGACGGCTGCG
34
